This collection of values is drawn from ChEMBL document CHEMBL3580564.

measured-target: Sodium-dependent serotonin transporter (Homo sapiens)
Sequence (P31645 whole entry): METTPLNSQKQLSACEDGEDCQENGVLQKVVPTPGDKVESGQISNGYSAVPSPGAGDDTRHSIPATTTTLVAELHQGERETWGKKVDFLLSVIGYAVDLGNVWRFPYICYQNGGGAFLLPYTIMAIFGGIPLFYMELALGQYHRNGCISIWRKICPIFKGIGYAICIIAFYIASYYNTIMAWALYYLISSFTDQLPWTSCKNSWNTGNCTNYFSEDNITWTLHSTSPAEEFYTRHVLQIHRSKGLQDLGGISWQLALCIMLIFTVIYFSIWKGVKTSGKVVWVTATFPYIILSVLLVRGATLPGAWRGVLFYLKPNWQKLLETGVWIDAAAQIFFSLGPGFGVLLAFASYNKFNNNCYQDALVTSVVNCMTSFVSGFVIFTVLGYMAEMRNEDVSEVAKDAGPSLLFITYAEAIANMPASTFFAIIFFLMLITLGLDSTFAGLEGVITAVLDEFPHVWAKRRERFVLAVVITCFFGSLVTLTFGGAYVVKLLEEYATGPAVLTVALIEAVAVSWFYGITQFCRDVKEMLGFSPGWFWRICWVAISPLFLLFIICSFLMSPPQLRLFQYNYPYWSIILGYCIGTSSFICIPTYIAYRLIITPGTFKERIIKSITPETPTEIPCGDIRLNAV
protocol-description: Displacement of [3H]citalopram from human recombinant SERT expressed in HEK cell membranes by radioligand binding assay
pKi: −log10 of the molar value.
readout-type: pKi

Task: Reported pKi, molecule "COc1cc2c(cc1O)C[C@H]1c3c(cc(OC)c(OC)c3-2)CCN1C" : ____
Output: < 6.02

====

measured-target: 5-hydroxytryptamine receptor 2A (Homo sapiens)
Sequence (P28223 whole entry): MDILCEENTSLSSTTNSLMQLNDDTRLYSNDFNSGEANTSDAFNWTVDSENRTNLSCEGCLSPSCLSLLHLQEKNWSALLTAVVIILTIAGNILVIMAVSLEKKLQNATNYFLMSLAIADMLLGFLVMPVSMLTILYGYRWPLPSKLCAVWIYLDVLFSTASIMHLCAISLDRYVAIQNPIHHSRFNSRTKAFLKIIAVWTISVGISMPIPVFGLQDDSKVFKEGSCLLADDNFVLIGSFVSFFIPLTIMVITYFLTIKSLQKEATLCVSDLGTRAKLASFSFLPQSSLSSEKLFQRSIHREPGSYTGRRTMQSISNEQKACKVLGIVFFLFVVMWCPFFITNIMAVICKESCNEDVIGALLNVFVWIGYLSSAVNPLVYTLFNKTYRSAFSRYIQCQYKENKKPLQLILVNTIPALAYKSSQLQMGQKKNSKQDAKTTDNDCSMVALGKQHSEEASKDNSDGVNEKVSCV
protocol-description: Displacement of [3H]ketanserin from human recombinant 5-HT2A receptor expressed in HEKT cell membranes by radioligand binding assay
Kindly state Ki for each of the entries shown.
Numbers only; they are read as nM.

Task: Reported Ki, compound CCCC(C)Oc1cc2c(cc1OC)-c1c(OC)c(OC)cc3c1[C@H](C2)N(C)CC3 (stereo not given in full) : ____
Output: 244

Task: Reported Ki, compound "CCCCCOc1cc2c(cc1OC)-c1c(OC)c(OC)cc3c1[C@H](C2)N(C)CC3" : ____
Output: 239

Task: Reported Ki, compound "COc1cc2c(cc1OCc1ccccc1)C[C@H]1c3c(cc(OC)c(OC)c3-2)CCN1C" : ____
Output: 216

Task: Reported Ki, compound "CCOc1cc2c(cc1OC)-c1c(OC)c(OC)cc3c1[C@H](C2)N(C)CC3" : ____
Output: 818

Task: Reported Ki, compound "CCCCCCOc1cc2c(cc1OC)-c1c(OC)c(OC)cc3c1[C@H](C2)N(C)CC3" : ____
Output: 570

Task: Reported Ki, compound CCCCC(C)Oc1cc2c(cc1OC)-c1c(OC)c(OC)cc3c1[C@H](C2)N(C)CC3 (stereo not given in full) : ____
Output: 446

Task: Reported Ki, compound "COc1cc2c(cc1OC)-c1c(OC)c(OC)cc3c1[C@H](C2)N(C)CC3" : ____
Output: 966

Task: Reported Ki, compound "COc1cc2c(cc1OC(C)C)C[C@H]1c3c(cc(OC)c(OC)c3-2)CCN1C" : ____
Output: 750

Task: Reported Ki, compound "COc1cc2c(cc1OCC1CC1)C[C@H]1c3c(cc(OC)c(OC)c3-2)CCN1C" : ____
Output: 582

Task: Reported Ki, compound "COc1cc2c(cc1OCc1ccc(Br)cc1)C[C@H]1c3c(cc(OC)c(OC)c3-2)CCN1C" : ____
Output: 418

Task: Reported Ki, compound "COc1cc2c(cc1OC1CCCCC1)C[C@H]1c3c(cc(OC)c(OC)c3-2)CCN1C" : ____
Output: 570

Task: Reported Ki, compound "CCCCOc1cc2c(cc1OC)-c1c(OC)c(OC)cc3c1[C@H](C2)N(C)CC3" : ____
Output: 268

Task: Reported Ki, compound CCC(C)Oc1cc2c(cc1OC)-c1c(OC)c(OC)cc3c1[C@H](C2)N(C)CC3 (stereo not given in full) : ____
Output: 377

Task: Reported Ki, compound "COc1cc2c(cc1OCCF)C[C@H]1c3c(cc(OC)c(OC)c3-2)CCN1C" : ____
Output: 1160

Task: Reported Ki, compound "C=CCOc1cc2c(cc1OC)-c1c(OC)c(OC)cc3c1[C@H](C2)N(C)CC3" : ____
Output: 383

====

measured-target: 5-hydroxytryptamine receptor 7 (Homo sapiens, UniProt P34969)
Sequence (P34969 whole entry): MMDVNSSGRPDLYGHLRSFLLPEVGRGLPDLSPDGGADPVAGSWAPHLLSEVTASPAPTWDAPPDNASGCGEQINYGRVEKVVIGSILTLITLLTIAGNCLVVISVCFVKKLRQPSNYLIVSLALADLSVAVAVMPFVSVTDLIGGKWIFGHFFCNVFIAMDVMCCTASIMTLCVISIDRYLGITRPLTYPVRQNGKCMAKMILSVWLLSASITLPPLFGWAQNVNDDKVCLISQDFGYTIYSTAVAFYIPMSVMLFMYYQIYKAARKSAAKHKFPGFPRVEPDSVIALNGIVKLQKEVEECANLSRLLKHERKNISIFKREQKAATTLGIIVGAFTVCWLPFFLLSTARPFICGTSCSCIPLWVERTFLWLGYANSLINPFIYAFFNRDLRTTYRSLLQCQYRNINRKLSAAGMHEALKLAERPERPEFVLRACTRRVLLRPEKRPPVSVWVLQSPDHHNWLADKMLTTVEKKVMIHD
protocol-description: Displacement of [3H]LSD from human recombinant 5-HT7 receptor expressed in HEK cell membranes by radioligand binding assay
Kindly state pKi for each of the entries shown.
On this scale, pKi is minus log10 of a concentration expressed in M (mol/L).

Task: Reported pKi, molecule "COc1cc2c(cc1O)C[C@H]1c3c(cc(OC)c(OC)c3-2)CCN1C" : ____
Output: 7.70

Task: Reported pKi, molecule "COc1cc2c(cc1OC)-c1c(OC)c(OC)cc3c1[C@H](C2)N(C)CC3" : ____
Output: 7.37

Task: Reported pKi, molecule CCC(C)Oc1cc2c(cc1OC)-c1c(OC)c(OC)cc3c1[C@H](C2)N(C)CC3 (some centres not stated) : ____
Output: 7.47

Task: Reported pKi, molecule "COc1cc2c(cc1OC(C)C)C[C@H]1c3c(cc(OC)c(OC)c3-2)CCN1C" : ____
Output: 7.55

Task: Reported pKi, molecule "COc1cc2c(cc1OCc1ccc(Br)cc1)C[C@H]1c3c(cc(OC)c(OC)c3-2)CCN1C" : ____
Output: 7.27

Task: Reported pKi, molecule "CCCCOc1cc2c(cc1OC)-c1c(OC)c(OC)cc3c1[C@H](C2)N(C)CC3" : ____
Output: 7.82

Task: Reported pKi, molecule CCCCC(C)Oc1cc2c(cc1OC)-c1c(OC)c(OC)cc3c1[C@H](C2)N(C)CC3 (some centres not stated) : ____
Output: 7.42

====

measured-target: 5-hydroxytryptamine receptor 2C (Homo sapiens, UniProt P28335)
Sequence (P28335 whole entry): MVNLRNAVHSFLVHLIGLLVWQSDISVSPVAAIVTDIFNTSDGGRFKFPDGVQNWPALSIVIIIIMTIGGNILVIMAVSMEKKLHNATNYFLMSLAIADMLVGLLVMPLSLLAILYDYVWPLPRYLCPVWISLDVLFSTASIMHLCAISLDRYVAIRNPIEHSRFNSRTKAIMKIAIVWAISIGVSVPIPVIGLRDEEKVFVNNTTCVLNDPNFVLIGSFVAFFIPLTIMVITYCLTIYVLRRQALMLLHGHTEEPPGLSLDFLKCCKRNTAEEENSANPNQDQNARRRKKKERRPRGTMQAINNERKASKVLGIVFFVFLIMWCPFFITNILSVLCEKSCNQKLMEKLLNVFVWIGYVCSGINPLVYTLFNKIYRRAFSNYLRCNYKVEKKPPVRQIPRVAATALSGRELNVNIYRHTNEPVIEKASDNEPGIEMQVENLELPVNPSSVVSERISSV
protocol-description: Displacement of [3H]mesulergine from human recombinant 5-HT2C receptor expressed in Flp-IN HEK cell membranes by radioligand binding assay
readout-type: Ki

Task: Reported Ki, compound "COc1cc2c(cc1O)C[C@H]1c3c(cc(OC)c(OC)c3-2)CCN1C" : ____
Output: > 950 nM

====

Kindly state Ratio Ki for each of the entries shown.
Species on record: Homo sapiens
protocol-description: Selectivity index, ratio of Ki for human recombinant 5-HT1A receptor to Ki for human recombinant 5-HT7 receptor

Task: Reported Ratio Ki, compound "CCCCOc1cc2c(cc1OC)-c1c(OC)c(OC)cc3c1[C@H](C2)N(C)CC3" : ____
Output: 10

Task: Reported Ratio Ki, compound CCC(C)Oc1cc2c(cc1OC)-c1c(OC)c(OC)cc3c1[C@H](C2)N(C)CC3 (stereo partly specified) : ____
Output: 7

Task: Reported Ratio Ki, compound CCCCC(C)Oc1cc2c(cc1OC)-c1c(OC)c(OC)cc3c1[C@H](C2)N(C)CC3 (stereo partly specified) : ____
Output: 4

Task: Reported Ratio Ki, compound "C=CCOc1cc2c(cc1OC)-c1c(OC)c(OC)cc3c1[C@H](C2)N(C)CC3" : ____
Output: 18

Task: Reported Ratio Ki, compound "CCOc1cc2c(cc1OC)-c1c(OC)c(OC)cc3c1[C@H](C2)N(C)CC3" : ____
Output: 7

Task: Reported Ratio Ki, compound "COc1cc2c(cc1OCc1ccc(Br)cc1)C[C@H]1c3c(cc(OC)c(OC)c3-2)CCN1C" : ____
Output: 2

Task: Reported Ratio Ki, compound COc1cc2c(cc1OC)-c1c(OC)c(OC)cc3c1[C@H](C2)N(C)CC3 [GLAUCINE] : ____
Output: 4

Task: Reported Ratio Ki, compound "COc1cc2c(cc1O)C[C@H]1c3c(cc(OC)c(OC)c3-2)CCN1C" : ____
Output: 16

Task: Reported Ratio Ki, compound "CCCCCCOc1cc2c(cc1OC)-c1c(OC)c(OC)cc3c1[C@H](C2)N(C)CC3" : ____
Output: 5

Task: Reported Ratio Ki, compound "COc1cc2c(cc1OCC1CC1)C[C@H]1c3c(cc(OC)c(OC)c3-2)CCN1C" : ____
Output: 10

Task: Reported Ratio Ki, compound "COc1cc2c(cc1OC1CCCCC1)C[C@H]1c3c(cc(OC)c(OC)c3-2)CCN1C" : ____
Output: 3

====

measured-target: D(3) dopamine receptor (Homo sapiens)
Sequence (P35462 whole entry): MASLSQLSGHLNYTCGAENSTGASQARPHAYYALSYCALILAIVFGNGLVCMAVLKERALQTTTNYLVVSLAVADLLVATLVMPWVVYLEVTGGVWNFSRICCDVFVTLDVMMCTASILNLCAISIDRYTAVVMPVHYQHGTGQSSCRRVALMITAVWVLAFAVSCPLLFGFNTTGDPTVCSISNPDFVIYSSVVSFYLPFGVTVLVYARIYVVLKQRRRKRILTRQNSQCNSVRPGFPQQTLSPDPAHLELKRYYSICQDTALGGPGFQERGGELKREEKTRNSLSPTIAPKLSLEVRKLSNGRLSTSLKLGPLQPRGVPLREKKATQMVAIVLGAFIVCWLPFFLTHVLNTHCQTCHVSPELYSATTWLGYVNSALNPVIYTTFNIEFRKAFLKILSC
protocol-description: Displacement of [3H]N-methylspiperone from human recombinant dopamine D3 receptor expressed in HEKT cell membranes by radioligand binding assay
readout-type: Ki

Task: Reported Ki, compound "COc1cc2c(cc1O)C[C@H]1c3c(cc(OC)c(OC)c3-2)CCN1C" : ____
Output: > 0.95 µM

====

measured-target: 5-hydroxytryptamine receptor 1A (Homo sapiens) (UniProt P08908)
Sequence (whole entry): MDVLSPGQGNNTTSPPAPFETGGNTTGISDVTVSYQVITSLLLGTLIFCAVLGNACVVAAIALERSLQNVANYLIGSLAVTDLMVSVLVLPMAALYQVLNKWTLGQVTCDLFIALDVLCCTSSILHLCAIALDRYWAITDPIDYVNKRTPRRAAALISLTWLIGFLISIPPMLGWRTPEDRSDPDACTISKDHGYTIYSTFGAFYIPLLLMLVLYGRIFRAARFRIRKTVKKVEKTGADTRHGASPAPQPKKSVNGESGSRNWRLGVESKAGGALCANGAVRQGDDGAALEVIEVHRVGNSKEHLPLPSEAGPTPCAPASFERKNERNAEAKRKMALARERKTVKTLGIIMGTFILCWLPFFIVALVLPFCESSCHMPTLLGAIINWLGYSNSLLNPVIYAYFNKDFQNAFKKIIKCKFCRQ
protocol-description: Potency index, ratio of Ki for N-Methyllaurotetanine to Ki for test compound against human recombinant 5-HT1A receptor expressed in CHO cell membranes by radioligand binding assay
Kindly state Ratio Ki for each of the entries shown.

Task: Param readout= Ratio Ki; system= 5-hydroxytryptamine receptor 1A (Homo sapiens) (UniProt P08908); entry= CCC(C)Oc1cc2c(cc1OC)-c1c(OC)c(OC)cc3c1[C@H](C2)N(C)CC3 (stereo partly specified) ; returns value.
Output: < 3

Task: Param readout= Ratio Ki; system= 5-hydroxytryptamine receptor 1A (Homo sapiens) (UniProt P08908); entry= "COc1cc2c(cc1OCc1ccc(Br)cc1)C[C@H]1c3c(cc(OC)c(OC)c3-2)CCN1C" ; returns value.
Output: 3

Task: Param readout= Ratio Ki; system= 5-hydroxytryptamine receptor 1A (Homo sapiens) (UniProt P08908); entry= "COc1cc2c(cc1OC1CCCCC1)C[C@H]1c3c(cc(OC)c(OC)c3-2)CCN1C" ; returns value.
Output: < 3

Task: Param readout= Ratio Ki; system= 5-hydroxytryptamine receptor 1A (Homo sapiens) (UniProt P08908); entry= CCCCC(C)Oc1cc2c(cc1OC)-c1c(OC)c(OC)cc3c1[C@H](C2)N(C)CC3 (stereo partly specified) ; returns value.
Output: < 3

Task: Param readout= Ratio Ki; system= 5-hydroxytryptamine receptor 1A (Homo sapiens) (UniProt P08908); entry= "COc1cc2c(cc1OCc1ccccc1)C[C@H]1c3c(cc(OC)c(OC)c3-2)CCN1C" ; returns value.
Output: 3

Task: Param readout= Ratio Ki; system= 5-hydroxytryptamine receptor 1A (Homo sapiens) (UniProt P08908); entry= CCCC(C)Oc1cc2c(cc1OC)-c1c(OC)c(OC)cc3c1[C@H](C2)N(C)CC3 (stereo partly specified) ; returns value.
Output: < 3
